Overview of reported GI50 across a group of molecules:
- Test system: DMS-114
- method notes: NCI tumour cell line growth inhibition, 48 h
The source made the active and inactive calls. No stated cut-off is given here; in the data, active = GI50 up to about 1.1 µM and inactive = higher.

Form field - read-out: GI50; system: DMS-114; submitted item: Brc1cccc(C2SCc3nc4ccccc4n32)c1 (stereo unspecified)
13.7 µM (inactive)

Then what about the molecule CCC1c2cc3n(c(=O)c2COC1O)Cc1c-3nc2ccccc2c1Cl (stereo unspecified) ?
49.4 µM (inactive)

Then what about the molecule CC(C)C(=O)NS(=O)(=O)c1ccccc1 ?
> 100 µM (inactive)

Then what about the molecule Nc1ccc(C(=O)NN2C(=O)C(Cl)C2c2ccc([N+](=O)[O-])cc2)cc1 (stereo unspecified) ?
2.84 µM (inactive)

Then what about the molecule O=C1c2ccoc2C(=O)c2oc(=O)ccc21 ?
2.05 µM (inactive)

Then what about the molecule CCC(=O)C1=C(OC(C)=O)C2Cc3c(n(C)c4ccccc34)C(C1)N2C (stereo unspecified) ?
26.7 µM (inactive)

Then what about the molecule CCOc1ccccc1NC(=O)/C=C1\NC(=O)CS1 ?
> 100 µM (inactive)

Then what about the molecule COC(=O)C1=C(C(=O)OC)SC(=CC#CC=C2SC(C(=O)OC)=C(C(=O)OC)S2)S1 ?
35.2 µM (inactive)

Then what about the molecule c1ccc2c(c1)CCc1c(-c3n[nH]c4c3CCc3ccccc3-4)n[nH]c1-2 ?
> 100 µM (inactive)

Then what about the molecule O=c1c2cc(Br)ccc2n(C2OC(CO)C(O)C(O)C2O)c(=S)n1-c1ccccc1 (stereo unspecified) ?
> 100 µM (inactive)

Then what about the molecule [O-][S+]1Nc2c(Cl)cc(Cl)c3c(Cl)cc(Cl)c(c23)N1 ?
36.3 µM (inactive)

Then what about the molecule CC(O)C(NC(=O)C(CS)NC(=O)C(CO)NC(=O)C(CCCCN)NC(=O)C(Cc1c[nH]c2ccccc12)NC(=O)C(Cc1ccc(O)cc1)NC(=O)C(CS)NC(=O)C(N)Cc1ccccc1)C(N)=O (stereo unspecified) ?
35.8 µM (inactive)

Then what about the molecule Oc1cc2cc(-c3ccccc3)[nH]c2c2ccccc12 ?
13.6 µM (inactive)
